# reported cell scattering score, HPAF-II, 1.000 nM; entries follow
- MEASURED_ON: native human MET on living human cells (human, UniProt P08581 25-1390)
- Sequence (P08581 25-1390): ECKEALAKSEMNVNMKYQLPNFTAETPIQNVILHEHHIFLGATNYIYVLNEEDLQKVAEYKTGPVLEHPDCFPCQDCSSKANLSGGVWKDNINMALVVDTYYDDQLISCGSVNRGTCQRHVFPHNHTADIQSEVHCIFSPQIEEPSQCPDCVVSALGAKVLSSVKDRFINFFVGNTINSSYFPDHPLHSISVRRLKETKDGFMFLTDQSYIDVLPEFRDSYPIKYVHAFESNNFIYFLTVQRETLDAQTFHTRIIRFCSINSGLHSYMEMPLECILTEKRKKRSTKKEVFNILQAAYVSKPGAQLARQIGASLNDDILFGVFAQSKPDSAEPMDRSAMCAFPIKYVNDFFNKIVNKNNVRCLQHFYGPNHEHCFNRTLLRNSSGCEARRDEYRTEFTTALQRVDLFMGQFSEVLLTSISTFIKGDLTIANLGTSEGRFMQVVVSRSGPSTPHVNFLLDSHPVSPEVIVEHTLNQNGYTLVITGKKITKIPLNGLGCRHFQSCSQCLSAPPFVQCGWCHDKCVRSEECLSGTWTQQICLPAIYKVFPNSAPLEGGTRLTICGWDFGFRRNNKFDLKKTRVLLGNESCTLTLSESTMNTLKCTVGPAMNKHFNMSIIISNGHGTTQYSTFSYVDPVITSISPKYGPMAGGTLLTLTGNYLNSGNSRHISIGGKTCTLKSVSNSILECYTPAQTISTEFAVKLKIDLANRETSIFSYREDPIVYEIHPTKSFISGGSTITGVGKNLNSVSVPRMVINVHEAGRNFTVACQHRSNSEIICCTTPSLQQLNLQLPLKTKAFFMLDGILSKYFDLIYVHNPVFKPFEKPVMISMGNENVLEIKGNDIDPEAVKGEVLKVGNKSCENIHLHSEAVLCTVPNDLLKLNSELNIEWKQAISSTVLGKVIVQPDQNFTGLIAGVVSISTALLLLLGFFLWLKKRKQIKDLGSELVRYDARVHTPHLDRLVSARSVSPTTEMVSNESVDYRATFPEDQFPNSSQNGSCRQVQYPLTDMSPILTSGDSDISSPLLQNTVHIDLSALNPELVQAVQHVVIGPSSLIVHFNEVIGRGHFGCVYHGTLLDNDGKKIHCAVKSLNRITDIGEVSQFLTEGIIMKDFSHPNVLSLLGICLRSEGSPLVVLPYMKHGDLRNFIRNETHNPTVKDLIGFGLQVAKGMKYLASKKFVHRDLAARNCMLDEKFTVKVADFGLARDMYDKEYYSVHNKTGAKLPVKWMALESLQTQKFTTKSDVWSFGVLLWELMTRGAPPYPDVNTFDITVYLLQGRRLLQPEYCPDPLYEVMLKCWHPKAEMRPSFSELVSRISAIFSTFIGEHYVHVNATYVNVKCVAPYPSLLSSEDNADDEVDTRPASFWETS
- TEST_SUMMARY: cell-based or functional assay
# answer = value followed by unit

chimeric llama-human IgG1 mAb 76H10 (antibody, V domains shown) VH: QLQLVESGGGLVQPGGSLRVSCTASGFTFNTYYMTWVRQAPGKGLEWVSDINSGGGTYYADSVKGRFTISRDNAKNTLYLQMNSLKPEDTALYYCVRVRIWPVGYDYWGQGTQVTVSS VL: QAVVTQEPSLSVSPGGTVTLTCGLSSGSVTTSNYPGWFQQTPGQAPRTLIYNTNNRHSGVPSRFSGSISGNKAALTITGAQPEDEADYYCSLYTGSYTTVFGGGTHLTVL; 1 score 0-4

Now look at this one.
Entry chimeric llama-human IgG1 mAb 71G12 (antibody, V domains shown) VH: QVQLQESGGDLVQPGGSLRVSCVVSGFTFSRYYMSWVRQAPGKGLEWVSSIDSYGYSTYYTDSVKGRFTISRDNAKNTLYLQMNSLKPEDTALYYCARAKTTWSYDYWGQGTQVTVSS VL: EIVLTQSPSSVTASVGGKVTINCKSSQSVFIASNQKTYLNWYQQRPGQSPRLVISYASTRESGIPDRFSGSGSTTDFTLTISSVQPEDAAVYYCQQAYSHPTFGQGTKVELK has what cell scattering score, HPAF-II, 1.000 nM? 2 score 0-4
